test: Solubility at pH 7.4; format: physicochemical; details: buffer
outcome measure: solubility (µg/mL)
Respond numerically; units are µg/mL and should not be typed.

Study these solved cases before continuing.
| molecule | endpoint result |
| --- | --- |
| O=C(Nc1ccc(C(=O)O)cc1)OCc1cn(-c2cc3nc(C(=O)O)c(O)nc3cc2[N+](=O)[O-])cn1 | 4860 |
| O=c1[nH]c2cc(-n3ccnc3)c([N+](=O)[O-])cc2[nH]c1=O [YM-90K] | 1000 |

Fill in the blank: the reported solubility of O=C(Nc1ccc(C(=O)O)cc1)OCc1cn(-c2cc3nc(C(=O)O)c(O)nc3cc2C(F)(F)F)cn1 is ____.
8290

This collection of values is drawn from ChEMBL document CHEMBL1137896.
